Source of measurements: ChEMBL document CHEMBL5528035

Experiment: Cmax in Sprague-Dawley rat at 10 mg/kg,iv administration measured upto 24 hrs by LC-MS/MS analysis
Type: ADME, organism-based
Settings: in vivo
Exercise: state measured Cmax for each of the compounds provided.
Numeric only. Scale: ng/mL

So what does the record say about Cmax for `O=C1Nc2ccccc2/C1=C1/Nc2ccccc2/C1=N\O` ?
8730

Try the compound COc1ccc(N(C(=O)CCl)C(C(=O)NCCc2ccccc2)c2cccs2)cc1Cl (stereo not drawn)
8530

Try the compound COc1ccc2c(c1)NC(=O)/C2=C1\Nc2ccccc2\C1=N/OCCCNC(=O)CCn1cc(COc2ccc(N(C(=O)CCl)C(C(=O)NCCc3ccccc3)c3cccs3)cc2Cl)nn1 (stereo not drawn)
9230

###

Target: CDK2/Cyclin A2 (Homo sapiens) (UniProt P24941+P20248)
Assay: Inhibition of CDK2/CyclinA2 (unknown origin) at 100 nM preincubated for 15 mins followed by substrate and ATP addition incubated for 10 mins by ADP-glo luminescent assay relative to control
Assay type: protein-complex assay
Settings: time 25.0 min
Reported endpoint: inhibition (%)
Numeric only. Scale: %

So what does the record say about inhibition for O=C(CCn1cc(COc2ccc(N(C(=O)CCl)C(C(=O)NCCc3ccccc3)c3cccs3)cc2Cl)nn1)NCCCO/N=C1/C(=C2/C(=O)Nc3ccccc32)Nc2ccccc21 (stereo not drawn) ?
22.1

Try the compound COc1ccc2c(c1)/C(=C1/Nc3ccccc3/C1=N\OCCCNC(=O)CCn1cc(COc3ccc(N(C(=O)CCl)C(C(=O)NCCc4ccccc4)c4cccs4)cc3Cl)nn1)C(=O)N2 (stereo not drawn)
26.6

Try the compound O=C(CCn1cc(COc2ccc(N(C(=O)CCl)C(C(=O)NCCc3ccccc3)c3cccs3)cc2Cl)nn1)O/N=C1/C(=C2/C(=O)Nc3ccccc32)Nc2cc(Cl)ccc21 (stereo not drawn)
8.53

Try the compound `O=C1Nc2ccccc2/C1=C1/Nc2ccccc2/C1=N\O`
40.3

Try the compound COc1ccc2c(c1)NC(=C1\C(=O)Nc3ccccc31)/C2=N/OC(=O)CCn1cc(COc2ccc(N(C(=O)CCl)C(C(=O)NCCc3ccccc3)c3cccs3)cc2Cl)nn1 (stereo not drawn)
12.6

Try the compound O=C(CCn1cc(COc2ccc(N(C(=O)CCl)C(C(=O)NCCc3ccccc3)c3cccs3)cc2Cl)nn1)NCCCO/N=C1/C(=C2/C(=O)Nc3cc(Cl)c(Cl)cc32)Nc2ccccc21 (stereo not drawn)
14

Try the compound O=C(CCn1cc(COc2ccc(N(C(=O)CCl)C(C(=O)NCCc3ccccc3)c3cccs3)cc2Cl)nn1)O/N=C1/C(=C2/C(=O)Nc3ccccc32)Nc2cc(F)c(F)cc21 (stereo not drawn)
10.5

Try the compound O=C(CCn1cc(COc2ccc(N(C(=O)CCl)C(C(=O)NCCc3ccccc3)c3cccs3)cc2Cl)nn1)NCCCO/N=C1/C(=C2/C(=O)Nc3cc(F)c(F)cc32)Nc2ccccc21 (stereo not drawn)
1.12

###

Target: CDK2/Cyclin A2 (Homo sapiens) (UniProt P24941+P20248)
Experiment: Inhibition of CDK2/CyclinA2 (unknown origin) at 100 nM preincubated for 15 mins followed by substrate and ATP addition incubated for 10 mins by ADP-glo luminescent assay relative to control
Assay type: protein-complex assay
Conditions: time 25.0 min
Rule: inhibition of 20% or more gives Y; anything lower gives N.

Exam item: decide whether the reported inhibition for O=C(CCn1cc(COc2ccc(N(C(=O)CCl)C(C(=O)NCCc3ccccc3)c3cccs3)cc2Cl)nn1)NCCCO/N=C1/C(=C2/C(=O)Nc3cc(Cl)ccc32)Nc2ccccc21 (configuration not stated) is at least 20%.
Y

Try the molecule O=C(CCn1cc(COc2ccc(N(C(=O)CCl)C(C(=O)NCCc3ccccc3)c3cccs3)cc2Cl)nn1)NCCCO/N=C1/C(=C2/C(=O)Nc3ccc(Cl)cc32)Nc2ccccc21 (configuration not stated)
Y

Try the molecule COc1ccc2c(c1)C(=N\OC(=O)CCn1cc(COc3ccc(N(C(=O)CCl)C(C(=O)NCCc4ccccc4)c4cccs4)cc3Cl)nn1)/C(=C1/C(=O)Nc3ccccc31)N2 (configuration not stated)
N

Try the molecule O=C(CCn1cc(COc2ccc(N(C(=O)CCl)C(C(=O)NCCc3ccccc3)c3cccs3)cc2Cl)nn1)NCCCO/N=C1/C(=C2/C(=O)Nc3ccc(F)cc32)Nc2ccccc21 (configuration not stated)
N

Try the molecule O=C(CCn1cc(COc2ccc(N(C(=O)CCl)C(C(=O)NCCc3ccccc3)c3cccs3)cc2Cl)nn1)O/N=C1/C(=C2/C(=O)Nc3ccccc32)Nc2ccccc21 (configuration not stated)
N

Try the molecule O=C(CCn1cc(COc2ccc(N(C(=O)CCl)C(C(=O)NCCc3ccccc3)c3cccs3)cc2Cl)nn1)NCCCO/N=C1/C(=C2/C(=O)Nc3cc(Br)c(Br)cc32)Nc2ccccc21 (configuration not stated)
N

Try the molecule O=C(CCn1cc(COc2ccc(N(C(=O)CCl)C(C(=O)NCCc3ccccc3)c3cccs3)cc2Cl)nn1)NCCCO/N=C1/C(=C2/C(=O)Nc3ccc(Br)cc32)Nc2ccccc21 (configuration not stated)
N
